# TEST_TARGET: T1, integrin αVβ5 (UniProt P06756 31-992; P18084 24-719)
# T1 construct: Coated on the ELISA plate
# T1 sequence (P06756 31-992, chain 1 of 2): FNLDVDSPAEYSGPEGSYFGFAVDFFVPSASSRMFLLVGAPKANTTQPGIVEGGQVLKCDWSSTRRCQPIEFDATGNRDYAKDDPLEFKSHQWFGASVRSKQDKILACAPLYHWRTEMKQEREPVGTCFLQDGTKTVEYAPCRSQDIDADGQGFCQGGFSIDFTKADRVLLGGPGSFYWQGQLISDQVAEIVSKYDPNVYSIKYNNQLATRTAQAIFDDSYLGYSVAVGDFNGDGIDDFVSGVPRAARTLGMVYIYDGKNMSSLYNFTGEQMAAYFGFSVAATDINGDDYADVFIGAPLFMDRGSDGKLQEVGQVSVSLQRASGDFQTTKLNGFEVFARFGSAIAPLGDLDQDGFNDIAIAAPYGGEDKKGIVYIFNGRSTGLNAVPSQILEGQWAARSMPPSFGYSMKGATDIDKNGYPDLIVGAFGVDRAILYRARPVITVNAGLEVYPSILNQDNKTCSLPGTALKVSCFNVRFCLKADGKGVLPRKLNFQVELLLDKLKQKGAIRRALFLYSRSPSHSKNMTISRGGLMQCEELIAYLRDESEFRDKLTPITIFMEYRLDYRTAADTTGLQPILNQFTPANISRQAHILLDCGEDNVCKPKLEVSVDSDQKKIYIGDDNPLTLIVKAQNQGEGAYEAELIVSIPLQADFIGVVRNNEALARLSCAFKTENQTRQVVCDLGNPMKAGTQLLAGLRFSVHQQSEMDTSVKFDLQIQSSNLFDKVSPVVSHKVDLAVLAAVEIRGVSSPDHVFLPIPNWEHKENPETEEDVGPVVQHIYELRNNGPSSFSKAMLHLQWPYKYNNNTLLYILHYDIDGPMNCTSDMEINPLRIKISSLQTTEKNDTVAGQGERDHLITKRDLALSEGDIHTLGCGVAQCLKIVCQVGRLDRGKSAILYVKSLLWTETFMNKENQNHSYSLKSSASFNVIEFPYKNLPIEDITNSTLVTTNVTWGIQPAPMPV
# T1 sequence (P18084 24-719, chain 2 of 2): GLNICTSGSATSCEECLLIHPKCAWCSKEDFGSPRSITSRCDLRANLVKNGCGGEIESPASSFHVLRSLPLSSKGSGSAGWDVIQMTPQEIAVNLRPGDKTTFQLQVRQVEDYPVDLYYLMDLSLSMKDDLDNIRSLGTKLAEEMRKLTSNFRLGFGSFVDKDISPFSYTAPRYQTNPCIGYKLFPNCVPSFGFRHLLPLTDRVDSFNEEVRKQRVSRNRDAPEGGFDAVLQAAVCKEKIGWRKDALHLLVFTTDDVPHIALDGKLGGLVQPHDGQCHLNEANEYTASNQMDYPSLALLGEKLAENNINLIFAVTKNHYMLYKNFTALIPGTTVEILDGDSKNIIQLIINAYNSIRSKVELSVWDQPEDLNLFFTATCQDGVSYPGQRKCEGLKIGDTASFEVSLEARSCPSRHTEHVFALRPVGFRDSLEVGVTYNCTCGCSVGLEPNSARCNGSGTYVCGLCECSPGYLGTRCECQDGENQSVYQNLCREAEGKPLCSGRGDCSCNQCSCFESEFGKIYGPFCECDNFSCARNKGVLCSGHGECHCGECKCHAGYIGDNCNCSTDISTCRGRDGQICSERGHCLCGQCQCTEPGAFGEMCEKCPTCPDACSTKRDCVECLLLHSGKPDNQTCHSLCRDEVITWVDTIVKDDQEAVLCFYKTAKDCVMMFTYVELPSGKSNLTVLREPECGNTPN
# ASSAY_DETAILS: ELISA, integrin coated, anti-MICA-HRP
MEASURED_QUANTITY: signal/ng (signal/ng)

soluble MICA generated by pKK48 (extended loop 3.2sp in loop 3) (designed binder) EPHSLRYNLTVLSWDGSVQSGFLTEVHLDGQPFLRCDRQKCRAKPQGQWAEDVLGNKTWDRETRDLTGNGKDLRMTLAHIKDQKEGLHSLQEIRVCEIHEDNSTRSSQHFYYDGELFLSQNLETKEWTMPQSSRAQTLAMNVRNFLKEDAMKTKTHYHAMHADCLQELRRYLKSGVVLRRTVPPMVNVTRSEASEGNITVTCRASGFYPWNITLSWRQDGVSLSHDTQQWGDVLPDGNGTYQTWVATRISGGSGGGSTSRGDHPRTQSGGSGGGCYMEHSGNHSTHPVPSGK : 7.68

Origin of measurements: patent EP2658867B1
